Below, each entry is listed with its recorded inhibition of growth at 10 µM.
- Tested on: SN12C
- assayNotes: Antiproliferative activity against human SN12C cells assessed as cell growth inhibition at 10 uM incubated for 48 hrs by SRB assay relative to control
- Assay type: functional
- assayContext: read-out: GI
measureName: inhibition of growth at 10 µM (%)

1) Cc1nc2c(cnn2-c2ccccc2)c(=O)n1-c1ccc(/N=C2\C(=O)Nc3ccccc32)cc1 = 37.3
2) Cc1nc2c(cnn2-c2ccccc2)c(=O)n1-c1ccc(NC(=O)c2ccccc2)cc1 = 24.3
3) Cc1nc2c(cnn2-c2ccccc2)c(=O)n1-c1ccc(NC(=O)c2ccc(Cl)cc2)cc1 = 17
4) CC(=O)Nc1ccc(-n2c(C)nc3c(cnn3-c3ccccc3)c2=O)cc1 = 26.1
5) Cc1nc2c(cnn2-c2ccccc2)c(=O)n1-c1ccc(NC(=O)c2ccc([N+](=O)[O-])cc2)cc1 = 29
6) COc1ccc(/C=C/C(=O)c2ccc(-n3c(C)nc4c(cnn4-c4ccccc4)c3=O)cc2)cc1 = 18.4
7) Cc1ccc(C(=O)Nc2ccc(-n3c(C)nc4c(cnn4-c4ccccc4)c3=O)cc2)cc1 = 26.7
8) Cc1nc2c(cnn2-c2ccccc2)c(=O)n1-c1ccc(NC(=O)c2ccc(F)cc2)cc1 = 25.6
9) Cc1nc2c(cnn2-c2ccccc2)c(=O)n1-c1ccc(N)cc1 = 21.1

###

- Tested on: BT-549
- assayNotes: Antiproliferative activity against human BT-549 cells assessed as cell growth inhibition at 10 uM incubated for 48 hrs by SRB assay relative to control
- Assay type: functional
- assayContext: read-out: GI
Returns one of condition met or condition not met; condition met when inhibition of growth at 10 µM is >= 40%.

1. Cc1nc2c(cnn2-c2ccccc2)c(=O)n1-c1ccc(NC(=O)c2ccco2)cc1 = condition not met
2. Cc1nc2c(cnn2-c2ccccc2)c(=O)n1-c1ccc(NC(=O)c2ccc(F)cc2)cc1 = condition met
3. CC(=O)Nc1ccc(-n2c(C)nc3c(cnn3-c3ccccc3)c2=O)cc1 = condition met
4. COc1ccc(/C=C/C(=O)c2ccc(-n3c(C)nc4c(cnn4-c4ccccc4)c3=O)cc2)cc1 = condition met
5. Cc1nc2c(cnn2-c2ccccc2)c(=O)n1-c1ccc(/N=C2\C(=O)Nc3ccccc32)cc1 = condition not met
6. Cc1nc2c(cnn2-c2ccccc2)c(=O)n1-c1ccc(NC(=O)c2ccc([N+](=O)[O-])cc2)cc1 = condition met

###

- Test system: RPMI-8226
- assayNotes: Antiproliferative activity against human RPMI-8226 cells assessed as cell growth inhibition at 10 uM incubated for 48 hrs by SRB assay relative to control
- Format: functional
- assayContext: read-out: GI
Below, each entry is listed with its recorded inhibition of growth at 10 µM.
measureName: inhibition of growth at 10 µM (%)

1) Cc1nc2c(cnn2-c2ccccc2)c(=O)n1-c1ccc(NC(=O)c2ccc(F)cc2)cc1 = 64.8
2) Cc1nc2c(cnn2-c2ccccc2)c(=O)n1-c1ccc(NC(=O)c2ccccc2)cc1 = 43.6

###

Below, each entry is listed with its recorded inhibition of growth at 10 µM.
- Tested on: ACHN
- assayNotes: Antiproliferative activity against human ACHN cells assessed as cell growth inhibition at 10 uM incubated for 48 hrs by SRB assay relative to control
- Format: functional
- assayContext: read-out: GI
measureName: inhibition of growth at 10 µM

1) COc1ccc(/C=C/C(=O)c2ccc(-n3c(C)nc4c(cnn4-c4ccccc4)c3=O)cc2)cc1 = 29%
2) Cc1nc2c(cnn2-c2ccccc2)c(=O)n1-c1ccc(N2C(=O)c3ccccc3C2=O)cc1 = < 15%
3) Cc1nc2c(cnn2-c2ccccc2)c(=O)n1-c1ccc(NC(=O)c2ccco2)cc1 = < 15%

###

- Tested on: MDA-MB-435
- assayNotes: Antiproliferative activity against human MDA-MB-435 cells assessed as cell growth inhibition at 10 uM incubated for 48 hrs by SRB assay relative to control
- Format: functional
- assayContext: read-out: GI
Below, each entry is listed with its recorded inhibition of growth at 10 µM.
measureName: inhibition of growth at 10 µM (%)

1. Cc1nc2c(cnn2-c2ccccc2)c(=O)n1-c1ccc(NC(=O)c2ccc([N+](=O)[O-])cc2)cc1 = 33.6
2. Cc1nc2c(cnn2-c2ccccc2)c(=O)n1-c1ccc(NC(=O)c2ccc(Cl)cc2)cc1 = 30.2
3. Cc1nc2c(cnn2-c2ccccc2)c(=O)n1-c1ccc(NC(=O)c2ccc(F)cc2)cc1 = 46.2

###

- System: T47D
- assayNotes: Antiproliferative activity against human T47D cells assessed as cell growth inhibition at 10 uM incubated for 48 hrs by SRB assay relative to control
- Format: functional
- assayContext: read-out: GI
measureName: inhibition of growth at 10 µM (%)

1. Cc1nc2c(cnn2-c2ccccc2)c(=O)n1-c1ccc(N)cc1 = 64.9
2. Cc1nc2c(cnn2-c2ccccc2)c(=O)n1-c1ccc(NC(=O)c2ccccc2)cc1 = 72.4
3. Cc1nc2c(cnn2-c2ccccc2)c(=O)n1-c1ccc(NC(=O)c2ccc(Cl)cc2)cc1 = 72.5

###

- Test system: HOP-62
- assayNotes: Antiproliferative activity against human HOP-62 cells assessed as cell growth inhibition at 10 uM incubated for 48 hrs by SRB assay relative to control
- Type: functional
- assayContext: read-out: GI
measureName: inhibition of growth at 10 µM

1) Cc1nc2c(cnn2-c2ccccc2)c(=O)n1-c1ccc(NC(=O)c2ccc(F)cc2)cc1 = 35.4%
2) Cc1nc2c(cnn2-c2ccccc2)c(=O)n1-c1ccc(/N=C2\C(=O)Nc3ccccc32)cc1 = < 15%
3) Cc1nc2c(cnn2-c2ccccc2)c(=O)n1-c1ccc(NC(=O)c2ccco2)cc1 = < 15%

###

Below, each entry is listed with its recorded inhibition of growth at 10 µM.
- Test system: TK-10
- assayNotes: Antiproliferative activity against human TK-10 cells assessed as cell growth inhibition at 10 uM incubated for 48 hrs by SRB assay relative to control
- Type: functional
- assayContext: read-out: GI
measureName: inhibition of growth at 10 µM (%)

1. Cc1nc2c(cnn2-c2ccccc2)c(=O)n1-c1ccc(NC(=O)c2ccc(F)cc2)cc1 = 29
2. Cc1nc2c(cnn2-c2ccccc2)c(=O)n1-c1ccc(NC(=O)c2ccc([N+](=O)[O-])cc2)cc1 = 31.5
3. CC(=O)Nc1ccc(-n2c(C)nc3c(cnn3-c3ccccc3)c2=O)cc1 = 20.4
4. Cc1nc2c(cnn2-c2ccccc2)c(=O)n1-c1ccc(NC(=O)c2ccccc2)cc1 = 18.6
5. Cc1nc2c(cnn2-c2ccccc2)c(=O)n1-c1ccc(NC(=O)c2ccc(Cl)cc2)cc1 = 19.9
6. Cc1nc2c(cnn2-c2ccccc2)c(=O)n1-c1ccc(N)cc1 = 21.8
7. Cc1ccc(C(=O)Nc2ccc(-n3c(C)nc4c(cnn4-c4ccccc4)c3=O)cc2)cc1 = 17.7

###

Below, each entry is listed with its recorded inhibition of growth at 10 µM.
- Test system: SNB-19
- assayNotes: Antiproliferative activity against human SNB-19 cells assessed as cell growth inhibition at 10 uM incubated for 48 hrs by SRB assay relative to control
- Type: functional
- assayContext: read-out: GI
measureName: inhibition of growth at 10 µM (%)

1) CC(=O)Nc1ccc(-n2c(C)nc3c(cnn3-c3ccccc3)c2=O)cc1 = 16.4
2) Cc1nc2c(cnn2-c2ccccc2)c(=O)n1-c1ccc(NC(=O)c2ccc([N+](=O)[O-])cc2)cc1 = 25.4

###

- assayNotes: Selectivity index, ratio of IC50 for human MCF-10A cells to IC50 for human T47D cells
- assayContext: MCF-10A cells versus T47D cells
measureName: selectivity ratio

1. Cc1nc2c(cnn2-c2ccccc2)c(=O)n1-c1ccc(NC(=O)c2ccc(F)cc2)cc1 = 4.75
2. Cc1nc2c(cnn2-c2ccccc2)c(=O)n1-c1ccc(NC(=O)c2ccc(Cl)cc2)cc1 = 1.72
3. Cc1nc2c(cnn2-c2ccccc2)c(=O)n1-c1ccc(NC(=O)c2ccccc2)cc1 = 1.56

###

- System: RXF 393
- assayNotes: Antiproliferative activity against human RXF 393 cells assessed as cell growth inhibition at 10 uM incubated for 48 hrs by SRB assay relative to control
- Assay type: functional
- assayContext: read-out: GI
measureName: inhibition of growth at 10 µM (%)

1. Cc1nc2c(cnn2-c2ccccc2)c(=O)n1-c1ccc(NC(=O)c2ccccc2)cc1 = 18.9
2. Cc1nc2c(cnn2-c2ccccc2)c(=O)n1-c1ccc(NC(=O)c2ccc([N+](=O)[O-])cc2)cc1 = 26.4
3. Cc1nc2c(cnn2-c2ccccc2)c(=O)n1-c1ccc(/N=C2\C(=O)Nc3ccccc32)cc1 = 29
4. COc1ccc(/C=C/C(=O)c2ccc(-n3c(C)nc4c(cnn4-c4ccccc4)c3=O)cc2)cc1 = 15.6
5. Cc1nc2c(cnn2-c2ccccc2)c(=O)n1-c1ccc(NC(=O)c2ccc(F)cc2)cc1 = 20.9

###

- Test system: ACHN
- assayNotes: Antiproliferative activity against human ACHN cells assessed as cell growth inhibition at 10 uM incubated for 48 hrs by SRB assay relative to control
- Type: functional
- assayContext: read-out: GI
Returns one of Fulfilled or Not fulfilled; Fulfilled when inhibition of growth at 10 µM is >= 30%.

1) Cc1nc2c(cnn2-c2ccccc2)c(=O)n1-c1ccc(NC(=O)c2ccccc2)cc1 = Fulfilled
2) Cc1nc2c(cnn2-c2ccccc2)c(=O)n1-c1ccc(N2C(=O)C=CC2=O)cc1 = Not fulfilled
3) Cc1nc2c(cnn2-c2ccccc2)c(=O)n1-c1ccc(NC(=O)c2ccc(F)cc2)cc1 = Fulfilled
4) Cc1nc2c(cnn2-c2ccccc2)c(=O)n1-c1ccc(NC(=O)c2ccc(Cl)cc2)cc1 = Fulfilled
5) Cc1nc2c(cnn2-c2ccccc2)c(=O)n1-c1ccc(NC(=O)c2ccc([N+](=O)[O-])cc2)cc1 = Fulfilled
6) Cc1nc2c(cnn2-c2ccccc2)c(=O)n1-c1ccc(/N=C2\C(=O)Nc3ccccc32)cc1 = Not fulfilled
7) Cc1ccc(C(=O)Nc2ccc(-n3c(C)nc4c(cnn4-c4ccccc4)c3=O)cc2)cc1 = Fulfilled
8) Cc1nc2c(cnn2-c2ccccc2)c(=O)n1-c1ccc(N)cc1 = Not fulfilled
